These measurements were taken from ChEMBL document CHEMBL3132754.

TEST METHOD NOTES: Metabolic stability in human liver microsomes assessed as compound remaining at 200 uM measured after 1 hr by LC/MS/MS method
Type: ADME
SETTINGS: read-out: Stability
remaining at 1 h, 200 µM values by entry
Respond with the bare value in %.

| SMILES RECORD | UNIT OF MEASURE | RECORDED RESULT |
| --- | --- | --- |
| CC(C)N(CCCNC(=O)Nc1ccc(C(C)(C)C)cc1)C[C@H]1O[C@@H](n2cnc3c(N)ncnc32)[C@H](O)[C@@H]1O | % | 50 |

Now examine the next entry.
remaining at 1 h, 200 µM reading for CC(C)N(CCCNC(=O)Nc1ccc(C(C)(C)C)cc1)CC1=C[C@@H](n2cnc3c(N)ncnc32)[C@H](O)[C@@H]1O : 50

* * *

TEST METHOD NOTES: Stability in human plasma assessed as compound remaining at 5 uM after 1 hr by LC/MS/MS method
Assay type: ADME, cell-free
SETTINGS: read-out: Stability
PARAMETER MEASURED: remaining at 1 h, 5 µM (%)
Respond with the bare value in %.

remaining at 1 h, 5 µM reading for CC(C)N(CCCNC(=O)Nc1ccc(C(C)(C)C)cc1)C[C@H]1O[C@@H](n2cnc3c(N)ncnc32)[C@H](O)[C@@H]1O : 90
